Below, each of the compounds is paired with its reported MIC value.
system: Staphylococcus aureus; assay: Antibacterial activity against quinolone-resistant Staphylococcus aureus CCARM 3505 assessed as bacterial growth inhibition measured during 24 hrs incubation at 37 degC by two-fold serial dilution technique; type: functional; details: CCARM 3505, 24 h
Give your result in µg/mL as a bare value.

Reference set, count: 3
CCC(C)[C@@H](C(=O)O)N1C(=O)/C(=C/c2c(C)nn(-c3ccccc3)c2Oc2ccc(F)cc2)SC1=S (some centres not stated) | 8
Cc1nn(-c2ccccc2)c(Oc2ccc(Cl)cc2Cl)c1/C=C1\SC(=S)N([C@H](C(=O)O)C(C)C)C1=O | 4
CCC(C)[C@@H](C(=O)O)N1C(=O)/C(=C/c2c(C)nn(-c3ccccc3)c2Oc2ccc(OC)cc2)SC1=S (some centres not stated) | 4

GET /values?readout=MIC&item= `Cc1ccccc1Oc1c(/C=C2\SC(=S)N([C@H](C(=O)O)C(C)C)C2=O)c(C)nn1-c1ccccc1`
8

GET /values?readout=MIC&item= `Cc1cccc(Oc2c(/C=C3\SC(=S)N([C@H](C(=O)O)C(C)C)C3=O)c(C)nn2-c2ccccc2)c1`
4

GET /values?readout=MIC&item= `Cc1cccc(Oc2c(/C=C3\SC(=S)N(CC(=O)O)C3=O)c(C)nn2-c2ccccc2)c1`
32

GET /values?readout=MIC&item= `Cc1nn(-c2ccccc2)c(Oc2ccc(Cl)cc2Cl)c1/C=C1\SC(=S)N(CC(=O)O)C1=O`
8

====

system: Staphylococcus aureus; assay: Antibacterial activity against quinolone-resistant Staphylococcus aureus CCARM 3505 assessed as bacterial growth inhibition measured during 24 hrs incubation at 37 degC by two-fold serial dilution technique; format: functional; details: CCARM 3505, 24 h
parameter.measured: MIC (µg/mL)
Give your result in µg/mL as a bare value.

Reference set, count: 2
CCC(C)[C@@H](C(=O)O)N1C(=O)/C(=C/c2c(C)nn(-c3ccccc3)c2Oc2c(Cl)cccc2Cl)SC1=S (stereo partly specified) | 16
CCC(C)[C@@H](C(=O)O)N1C(=O)/C(=C/c2c(C)nn(-c3ccccc3)c2Oc2ccccc2)SC1=S (stereo partly specified) | 8

GET /values?readout=MIC&item= `Cc1nn(-c2ccccc2)c(Oc2ccc(Br)cc2)c1/C=C1\SC(=S)N(CC(=O)O)C1=O`
16

GET /values?readout=MIC&item= CCC(C)[C@@H](C(=O)O)N1C(=O)/C(=C/c2c(C)nn(-c3ccccc3)c2Oc2cccc(C)c2)SC1=S (stereo partly specified)
4

GET /values?readout=MIC&item= CCC(C)[C@@H](C(=O)O)N1C(=O)/C(=C/c2c(C)nn(-c3ccccc3)c2Oc2cccc(Cl)c2)SC1=S (stereo partly specified)
8

GET /values?readout=MIC&item= `Cc1nn(-c2ccccc2)c(Oc2ccccc2Cl)c1/C=C1\SC(=S)N([C@H](C(=O)O)C(C)C)C1=O`
8

GET /values?readout=MIC&item= `Cc1nn(-c2ccccc2)c(Oc2cccc(C(F)(F)F)c2)c1/C=C1\SC(=S)N([C@H](C(=O)O)C(C)C)C1=O`
8

GET /values?readout=MIC&item= `Cc1nn(-c2ccccc2)c(Oc2ccc(Cl)cc2Cl)c1/C=C1\SC(=S)N([C@@H](CC(C)C)C(=O)O)C1=O`
4

GET /values?readout=MIC&item= `COc1ccccc1Oc1c(/C=C2\SC(=S)N([C@H](C(=O)O)C(C)C)C2=O)c(C)nn1-c1ccccc1`
16

GET /values?readout=MIC&item= CCC(C)[C@@H](C(=O)O)N1C(=O)/C(=C/c2c(C)nn(-c3ccccc3)c2Oc2ccc3ccccc3c2)SC1=S (stereo partly specified)
2

GET /values?readout=MIC&item= `Cc1nn(-c2ccccc2)c(Oc2c(Cl)cccc2Cl)c1/C=C1\SC(=S)N(CC(=O)O)C1=O`
32

GET /values?readout=MIC&item= `Cc1nn(-c2ccccc2)c(Oc2ccc(Br)cc2)c1/C=C1\SC(=S)N([C@H](C(=O)O)C(C)C)C1=O`
4

GET /values?readout=MIC&item= `Cc1nn(-c2ccccc2)c(Oc2cccc(Cl)c2)c1/C=C1\SC(=S)N(CC(=O)O)C1=O`
8

GET /values?readout=MIC&item= CCC(C)[C@@H](C(=O)O)N1C(=O)/C(=C/c2c(C)nn(-c3ccccc3)c2Oc2cccc(C(F)(F)F)c2)SC1=S (stereo partly specified)
8
